Recorded IC50 for compounds tested on Tyrosine-protein phosphatase non-receptor type 1 (Homo sapiens, UniProt P18031), drawn from a number of studies.
Sequence (P18031 whole entry): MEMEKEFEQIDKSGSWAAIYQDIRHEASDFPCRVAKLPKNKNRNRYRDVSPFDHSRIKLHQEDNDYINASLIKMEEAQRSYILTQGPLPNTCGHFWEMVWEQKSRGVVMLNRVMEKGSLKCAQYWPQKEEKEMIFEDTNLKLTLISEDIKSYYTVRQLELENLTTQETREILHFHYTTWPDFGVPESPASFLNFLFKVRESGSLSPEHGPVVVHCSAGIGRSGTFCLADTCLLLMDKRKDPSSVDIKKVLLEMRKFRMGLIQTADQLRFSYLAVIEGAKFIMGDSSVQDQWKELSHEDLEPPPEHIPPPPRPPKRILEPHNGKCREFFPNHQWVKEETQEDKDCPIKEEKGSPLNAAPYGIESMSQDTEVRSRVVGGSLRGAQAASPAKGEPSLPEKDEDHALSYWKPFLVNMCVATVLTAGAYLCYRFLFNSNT
Experimental endpoint: IC50 (µM)

1. O=Cc1coc2ccc3ccccc3c2c1=O
2. Cc1ccc(-c2nn(-c3ccccc3)cc2/C=C2\SC(=S)N([C@H](Cc3ccccc3)C(=O)O)C2=O)cc1
3. COc1ccc(CC(NC(=O)CCCC[C@]23CCC(C)(C)C[C@H]2C2=CC[C@@H]4[C@@]5(C)CC[C@H](O)C(C)(C)[C@@H]5CC[C@@]4(C)[C@]2(C)CC3)C(=O)O)cc1 (stereo partly specified)
4. O=C1CC(c2ccc(CC(NS(=O)(=O)c3cccc(C(F)(F)F)c3)c3ncc(CCCc4ccccc4)[nH]3)cc2)S(=O)(=O)N1 (stereo unspecified)
5. O=C(O)c1cc(-c2ccccc2)ccc1O
In: Order field: IC50 | Direction: descending (largest first) A ranking is expressed here by listing the labels in the requested order.
Out: 5, 1, 2, 3, 4

1. O=C(O)CN1C(=O)S/C(=C\c2cccc(OCCc3ccccc3)c2)C1=O
2. O=C1CC(c2ccc(CC(NS(=O)(=O)c3ccc(C(F)(F)F)cc3)c3nc4ccccc4[nH]3)cc2)S(=O)(=O)N1 (stereo unspecified)
3. CCOS(=O)(=O)/C=C/c1ccc(O[C@@H]2CN(C(=O)C(=O)Nc3ccc(Oc4ccc(F)cc4)cc3)C[C@H]2Oc2ccc(CCS(=O)(=O)OCC)cc2)cc1
In: Order the records, beginning with the lowest IC50 and ending with the highest. Your answer should be the labels, listed in the requested order.
Out: 2, 3, 1

1. CCOP(=O)(OCC)[C@H](Nc1ccc([N+](=O)[O-])cc1)c1ccccc1O
2. COc1ccc(CC(=O)N[C@@H](Cc2ccccc2)C(=O)N[C@@H](Cc2ccc(C3CC(=O)NS3(=O)=O)cc2)C(N)=O)cc1 (stereo partly specified)
In: Of the pair 1 and 2 , name the member with the lesser recorded IC50. Refer to your chosen entry by its label in the reply.
Out: 2

A. O=C(O)COc1ccc(S(=O)(=O)N(Cc2ccccc2)Cc2ccc(C(F)(F)P(=O)(O)O)cc2)cc1OC(F)(F)F
B. O=C(O)c1cccc(/C=C/c2ccc(Oc3cnoc3-c3cccc([N+](=O)[O-])c3)cc2)c1
C. CC(C(=O)O)(C(=O)O)c1ccc(CN(Cc2ccc(-c3csnn3)cc2)S(=O)(=O)c2ccc(OCC(=O)O)cc2)cc1
D. O=C1CC(c2ccc(CC(NS(=O)(=O)c3cccc(C(F)(F)F)c3)c3ncc(CCc4ccccc4)[nH]3)cc2)S(=O)(=O)N1 (stereo unspecified)
E. O=C1CC(c2ccc(CC(NS(=O)(=O)c3cccc(F)c3)c3ncc(Cc4ccccc4)[nH]3)cc2)S(=O)(=O)N1 (stereo unspecified)
In: Place the items in sequence of falling IC50. Write out the labels following the order that was asked for.
Out: C, A, B, E, D
